- Assay Method Text: folding stability dG unfold from chymotrypsin proteolysis; higher = more stable
Experimental Readout: folding stability dG unfold (kcal/mol)
Reply numerically in kcal/mol, unit not repeated.

Recorded folding stability dG unfold, per entry:
>>> experimental_result("SAPSPSVPLDPVTTETVLVKDPEKGEEITLEILTDANSDEVLVRITYPDGSEVVLRLKKEEVEKVIEALSAG [r14_240_JUSTAS]")
3.08
>>> experimental_result("SAGGSAGGSAVKIKIEQLGPGYFHITIEQEMMYPDGKSRKMTMTMMFKVNAPPNDPALRELLSAGGSAGGSA [r18_215_TrROS]")
2.98
>>> experimental_result("SAGGMKSETIPLTTPEGVPFEVTITTENGKVTVTITPLDPSAPEEVVEAVRAAVEARAAAAGKTVTLVSAGG [r13_774_JUSTAS]")
1.37
>>> experimental_result("SAGMTIVVEVPKKDITPEELAKKLEERFGLKVVEIKVEEVEEDKVRVTIRFEETGETLELTAEEIKELLSAG [r5_550_TrROS_Hall]")
3.81
>>> experimental_result("SMTITIVVEAPPEEAKEKAEELEKELKEKLDKLREEAKKKGLSEEEIEEELKIKIKVVVVSKEDLEKLKPSA [r9_961_TrROS_Hall]")
-0.317

Switching to the query record.
Query block: Given the sequence SADKIKIPPGFQIFGPNGQPIRPGTEVEVEDIEPHPGGGEFMFEVKIKSPDDGEEHNWPIMIRFPPAGKSAG [r14_258_TrROS] , write its reported folding stability dG unfold.
Result block: -0.395

----------
- Assay Method Text: folding stability dG unfold (combined trypsin and chymotrypsin); higher = more stable
Experimental Readout: folding stability dG unfold (kcal/mol)
Reply numerically in kcal/mol, unit not repeated.

>>> experimental_result("SAGGSAGGSMYVVRAVIRRPKAVPPPLAEEEIDIPVADREITAEEIARLFTPPGYELVRIEADSAGGSAGGS [r12_611_TrMRF]")
-0.225

Query block: Given the sequence SAGGSAGGMIRTYELPETGEVRVLIRTPNPEEAEALAAEVRAELAAAGLDVPVEISPGPASALDSAGGSAGG [r6_641_JUSTAS] , write its reported folding stability dG unfold.
Result block: 0.283

Query block: Given the sequence SAGGNRIMFIVNSPEEAERFANFIRKHLPPGMNLEIEIEPFPLKDNVPPDDPDYKNQPVYMVHITIPSAGGS [r16_795_TrROS] , write its reported folding stability dG unfold.
Result block: 3.73

Query block: Given the sequence SAGGNWRPVERPIPIEPGMPPEEFIDEIADELPPGWRIDKPEPHPDNNYFKITVYDPNDGNQVEILFSAGGS [r16_250_TrROS] , write its reported folding stability dG unfold.
Result block: 0.122

----------
- Assay Method Text: folding stability dG unfold from chymotrypsin proteolysis; higher = more stable
Here the recorded folding stability dG unfold is given for each entry.
Reply numerically in kcal/mol, unit not repeated.

Query block: Given the sequence SAGGSAGGPVKIHVHVNPEEGYYMIEVRSGNEPRHIMIPMDKEEIKSFIENLPPGIEVEIHPMPSAGGSAGG [r6_401_TrROS] , write its reported folding stability dG unfold.
Result block: 1.19

Query block: Given the sequence SAMVLVKIELYDPENEEPLATAEFVVPEEDLEAFVEEAKKIFGVAEDAFIKVEAAPLEPLTDESGEEVLSAG [r14_297_TrMRF] , write its reported folding stability dG unfold.
Result block: 1.79

Query block: Given the sequence SAGMKIKIIKLDKNLEELSEEELKKLLEELAKKGLVEKKKDGKKVIPLTVIDKKTKKTYTFYIEIEKPPSAG [r5_243_TrROS_Hall] , write its reported folding stability dG unfold.
Result block: 2.72

Query block: Given the sequence SAKKVPKIEKIEFIPGPNLVKITIPVPEKDKLLVTIDLKDKKLEFELKKNTSFYFSAKYADIKVSVEKKSAG [r14_96_TrMRF] , write its reported folding stability dG unfold.
Result block: 3.11

Query block: Given the sequence SAGKKKKVVITIKVEKSEEEVKELVKKLAEEAKKKGKEVVIKIEVDGKTYEFTLEDIKKLPPNAKVTLLSAG [r5_626_TrROS_Hall] , write its reported folding stability dG unfold.
Result block: 1.67

Query block: Given the sequence SAGGMTLEDLAGQSIEEALDLIEENGWDEVTITYPGGSKIEIKYNKDGPIEVEWENPDGNKQTFTIPSAGGS [r8_51_TrROS] , write its reported folding stability dG unfold.
Result block: 0.907

Query block: Given the sequence SYIKIPFNVWMPPDNAEAMAEEFANNLAQKHGWKIKGIKPVEPVPSPDGEWYPFRVSITIRMPDPEAINASA [r9_302_TrROS] , write its reported folding stability dG unfold.
Result block: 2.07

Query block: Given the sequence SAGGSKWRMYEITLELGDKPVKITVYYMDGNYSVAIKFPPGRKVDIPFDGPMSPEDAAKKALEALGSAGGSA [r2_92_TrROS] , write its reported folding stability dG unfold.
Result block: 3.58

Query block: Given the sequence SAGGSAGGSPVPVKVVVKLPSSDKTIELTLYPPDVSPDSVVTVDLGGPAIDVKLLPGDVLELSPSAGGSAGG [r6_461_JUSTAS] , write its reported folding stability dG unfold.
Result block: 0.524

Query block: Given the sequence SAGGSAGGSAGNKPVTVRFTIKIPLPNGKKLEIPVEVTYDSPEDRDRAEKEAEEIAREFLSAGGSAGGSAGG [r17_510_TrROS] , write its reported folding stability dG unfold.
Result block: 1.11

Query block: Given the sequence SAGGMTPVPVKLLSEESSSVSTLPNGETVTTTPSLAYSPLGFYVLTTTTTYPATPVTTTTSTVVPLSVSAGG [r19_320_JUSTAS] , write its reported folding stability dG unfold.
Result block: -0.151

Query block: Given the sequence SAGGSAGGSAGGPYWRVKIEWMDPNGKKKEHTFTFPPGWPLEEIAEELKPNGYKIEVEPLSAGGSAGGSAGG [r7_226_TrROS] , write its reported folding stability dG unfold.
Result block: 1.7

Query block: Given the sequence SAGGTLKVTEEEVSESEFESPGLPLRRTTTTYTLVDPVTGKPVPTSKKVTVETLETPEGRVLETVVTSSAGG [r13_24_JUSTAS] , write its reported folding stability dG unfold.
Result block: 0.0434

Query block: Given the sequence SAGGSAGGSAGGASLKVVEREVEYYDPETGETVRVKALVTVDPNSDKEILDPEEKEKLLSSAGGSAGGSAGG [r7_557_JUSTAS] , write its reported folding stability dG unfold.
Result block: 0.795
